- MEASURED TARGET: JAK3 (Homo sapiens, UniProt P52333)
- Construct: endogenous in cells; mixed lysate 1:2
- Sequence (P52333 whole entry): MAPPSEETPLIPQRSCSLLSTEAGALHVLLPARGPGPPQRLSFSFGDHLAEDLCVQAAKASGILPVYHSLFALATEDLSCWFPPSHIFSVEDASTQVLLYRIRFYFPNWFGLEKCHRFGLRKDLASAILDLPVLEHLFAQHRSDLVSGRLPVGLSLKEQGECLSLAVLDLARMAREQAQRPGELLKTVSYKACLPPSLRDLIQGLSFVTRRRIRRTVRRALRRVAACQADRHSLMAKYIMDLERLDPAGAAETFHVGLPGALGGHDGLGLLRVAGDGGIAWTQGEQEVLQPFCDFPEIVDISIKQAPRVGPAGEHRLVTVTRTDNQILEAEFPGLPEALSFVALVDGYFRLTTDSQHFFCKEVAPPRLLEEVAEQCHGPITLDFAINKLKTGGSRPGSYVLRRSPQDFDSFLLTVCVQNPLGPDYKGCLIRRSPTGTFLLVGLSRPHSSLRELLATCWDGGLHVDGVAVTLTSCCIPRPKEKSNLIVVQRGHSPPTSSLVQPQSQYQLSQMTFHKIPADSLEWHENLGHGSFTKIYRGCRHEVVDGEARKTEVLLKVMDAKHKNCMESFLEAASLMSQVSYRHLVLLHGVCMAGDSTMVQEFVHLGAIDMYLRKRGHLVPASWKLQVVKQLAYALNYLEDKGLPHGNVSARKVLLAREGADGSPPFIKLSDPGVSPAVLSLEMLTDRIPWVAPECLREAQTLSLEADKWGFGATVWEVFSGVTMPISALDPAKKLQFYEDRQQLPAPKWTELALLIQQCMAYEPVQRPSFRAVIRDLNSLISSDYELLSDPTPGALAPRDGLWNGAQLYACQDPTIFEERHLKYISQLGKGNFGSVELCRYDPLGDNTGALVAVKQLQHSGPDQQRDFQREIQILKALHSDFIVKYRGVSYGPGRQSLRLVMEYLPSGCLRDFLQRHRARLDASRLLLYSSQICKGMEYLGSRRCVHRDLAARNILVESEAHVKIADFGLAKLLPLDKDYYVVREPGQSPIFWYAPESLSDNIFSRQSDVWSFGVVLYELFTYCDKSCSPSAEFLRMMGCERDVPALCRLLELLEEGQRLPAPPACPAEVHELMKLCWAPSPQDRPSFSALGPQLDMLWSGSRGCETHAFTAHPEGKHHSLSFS
- TEST PROTOCOL: Kinobeads assay with immunodetection, JAK3
- MEASUREMENT CONTEXT: Kinobeads assay, mixed Molt4/Ramos lysate; read-out: Inhibition values (IC50) JAK3
pIC50: −log10 of the molar value.
RECORDED METRIC: pIC50

The examples below pair each entry with its known result.
COMPOUND: C=CC(=O)N1CCCC[C@@H]1CNc1nc(Nc2cnn(C)c2)ncc1Cl
RECORDED METRIC: pIC50
OBSERVED MEASUREMENT: 6.00 to 7.00

COMPOUND: CN(C)CC(=O)N1CCC[C@@H]1CNc1nc(Nc2cnn(C)c2)ncc1Cl
RECORDED METRIC: pIC50
OBSERVED MEASUREMENT: 6.00 to 7.00

COMPOUND: Cn1cc(Nc2ncc(Cl)c(NC[C@H]3CCCN3C(=O)CC#N)n2)cn1
RECORDED METRIC: pIC50
OBSERVED MEASUREMENT: > 7.00

Exam item: Record request: pIC50 value, item `Cn1cc(Nc2nccc(NC[C@H]3CCCN3C(=O)CCC#N)n2)cn1`
Marked response: 5.00 to 6.00

Exam item: Next entry: `Cn1cc(Nc2nccc(NC[C@H]3CCCN3C(=O)CC#N)n2)cn1`
Marked response: 5.00 to 6.00

Exam item: Next entry: `C=CS(=O)(=O)N1CCC[C@@H]1CNc1nc(Nc2cnn(C)c2)ncc1Cl`
Marked response: > 7.00

Exam item: Next entry: `CC(=O)N1CCC[C@@H]1CNc1nc(Nc2cnn(CCO)c2)ncc1Cl`
Marked response: > 7.00

Exam item: Next entry: `Cn1cc(Nc2ncc(Cl)c(NC[C@H]3CCCN3CCC#N)n2)cn1`
Marked response: > 7.00

Exam item: Next entry: `CC(=O)N1CC(CNc2nc(Nc3cnn(CCO)c3)ncc2Cl)C1`
Marked response: 5.00 to 6.00

Exam item: Next entry: `Cn1cc(Nc2ncc(Cl)c(NC[C@H]3CCN(CCS(C)(=O)=O)C3)n2)cn1`
Marked response: > 7.00

Exam item: Next entry: `CS(=O)(=O)N1CCC[C@H]1CNc1nc(Nc2cnn(CCO)c2)ncc1Cl`
Marked response: > 7.00

Exam item: Next entry: `Cc1cnc(Nc2cnn(CC(F)F)c2)nc1NC[C@H]1CCN(CCS(C)(=O)=O)C1`
Marked response: 6.00 to 7.00

Exam item: Next entry: `Cc1cnc(Nc2cnn(CC(F)F)c2)nc1NC[C@@H]1CCCN1C(=O)CC#N`
Marked response: 6.00 to 7.00

Exam item: Next entry: `C=CS(=O)(=O)N1CCC[C@H]1CNc1nc(Nc2cnn(C)c2)ncc1Cl`
Marked response: > 7.00

Exam item: Next entry: `CC(=O)N1CCCC[C@@H]1CNc1nc(Nc2cnn(C)c2)ncc1Cl`
Marked response: 6.00 to 7.00

Exam item: Next entry: `Cc1cnc(Nc2cnn(C)c2)nc1NC[C@H]1CCCN1C(=O)CC#N`
Marked response: 6.00 to 7.00

Exam item: Next entry: OCCn1cc(Nc2ncc(Cl)c(NCC3CCNC3)n2)cn1 (stereo in doubt)
Marked response: 5.00 to 6.00

Exam item: Next entry: `Cn1cc(Nc2ncc(Cl)c(NC[C@H]3CCCN3CC#N)n2)cn1`
Marked response: > 7.00
